Ki values for Somatostatin receptor type 2 (Rattus norvegicus) compiled from several publications are listed below.
quantity-name: Ki (nM)

INSERT INTO results (compound, quantity_name, assay_result) VALUES
  ('C[C@@H](O)[C@@H]1NC(=O)[C@H](CCCCN)NC(=O)[C@@H](Cc2c[nH]c3ccccc23)NC(=O)[C@H](Cc2ccccc2)NC(=O)[C@@H](NC(=O)[C@@H](Cc2ccccc2)NC(=O)CN2CCN(CC(=O)O)CCN(CC(=O)O)CCN(CC(=O)O)CC2)CSSC[C@@H](C(=O)N[C@H](CO)[C@@H](C)O)NC1=O', 'Ki', 3.2);

(P) CC(O)[C@@H](NC(=O)[C@H](CCCCN)NC(=O)[C@@H](Cc1c[nH]c2ccccc12)NC(=O)[C@H](Cc1ccccc1)NC(=O)C(Cc1ccccc1)NC(=O)C(N)CS)C(=O)NC(Cc1ccccc1)C(=O)NC(CS)C(N)=O (some centres undefined)
(Q) CC(C)[C@@H]1NC(=O)[C@H](CCCCN)NC(=O)[C@@H](Cc2c[nH]c3ccccc23)NC(=O)[C@H](Cc2ccc(O)cc2)NC(=O)[C@@H](NC(=O)[C@@H](N)Cc2ccc([N+](=O)[O-])cc2)CSSC[C@@H](C(=O)N[C@@H](Cc2ccc(O)cc2)C(N)=O)NC1=O
(R) CC(C)[C@@H]1NC(=O)[C@H](CCCCN)NC(=O)[C@@H](Cc2c[nH]c3ccccc23)NC(=O)[C@H](Cc2ccc(O)cc2)NC(=O)[C@H](C)N(C)C(=O)[C@H](Cc2ccccc2)NC1=O
# input Order the entries by their reported Ki, beginning at the minimum. Write the labels in rank order as requested.
# output Q, R, P
(Q: 0.2 nM, R: 0.48 nM, P: 45 nM)
